TEST DESCRIPTION: Growth inhibition of mouse J774 cells at 1.25 uM after 24 hrs by resazurin reduction assay
Format: cell-based
SETTINGS: read-out: GI
Each entry below lists one item and its recorded inhibition at 24 h, 1.25 µM value.
MEASUREMENT KIND: inhibition at 24 h, 1.25 µM

> print(dat)
                            compound.string             measurement.kind  meas.value
1  CCCCn1c2ccc([N+](=O)[O-])cc2c(=O)n1Cc1ccccc1  inhibition at 24 h, 1.25 µM       5.37%
2  CCCn1c2ccc([N+](=O)[O-])cc2c(=O)n1Cc1ccccc1  inhibition at 24 h, 1.25 µM       0.14%

###

Each entry below lists one item and its recorded inhibition at 24 h, 8 µM value.
TEST DESCRIPTION: Growth inhibition of mouse J774 cells at 8 uM after 24 hrs by resazurin reduction assay
Type: cell-based
SETTINGS: read-out: GI
MEASUREMENT KIND: inhibition at 24 h, 8 µM (%)

> print(dat)
                            compound.string          measurement.kind  meas.value
1  CC(C)n1c2ccc([N+](=O)[O-])cc2c(=O)n1Cc1ccccc1  inhibition at 24 h, 8 µM        10.3
2  CCCn1c2ccc([N+](=O)[O-])cc2c(=O)n1Cc1ccccc1  inhibition at 24 h, 8 µM           0
3  CCCCn1c2ccc([N+](=O)[O-])cc2c(=O)n1Cc1ccccc1  inhibition at 24 h, 8 µM        7.65

###

TEST DESCRIPTION: Growth inhibition of mouse J774 cells at 64 uM after 24 hrs by resazurin reduction assay
Type: cell-based
SETTINGS: read-out: GI
Each entry below lists one item and its recorded inhibition at 24 h, 64 µM value.
MEASUREMENT KIND: inhibition at 24 h, 64 µM (%)

> print(dat)
                                    compound           measurement.kind  meas.value
 1  CCCn1c2ccc([N+](=O)[O-])cc2c(=O)n1Cc1ccccc1  inhibition at 24 h, 64 µM           0
 2  CCCCn1c2ccc([N+](=O)[O-])cc2c(=O)n1Cc1ccccc1  inhibition at 24 h, 64 µM        33.3
 3    Cn1nc2ccc([N+](=O)[O-])cc2c1OCc1ccccc1  inhibition at 24 h, 64 µM        21.5
 4         Cn1c(=O)c2cc([N+](=O)[O-])ccc2n1C  inhibition at 24 h, 64 µM        11.4
 5  CC(C)n1c2ccc([N+](=O)[O-])cc2c(=O)n1Cc1ccccc1  inhibition at 24 h, 64 µM        14.5
 6            COc1c2cc([N+](=O)[O-])ccc2nn1C  inhibition at 24 h, 64 µM           0
 7  Cn1c2ccc([N+](=O)[O-])cc2c(=O)n1Cc1ccccc1  inhibition at 24 h, 64 µM        15.2
 8     CC(C)n1c2ccc([N+](=O)[O-])cc2c(=O)n1C  inhibition at 24 h, 64 µM           0
 9  CC(C)n1c2ccc([N+](=O)[O-])cc2c(=O)n1Cc1ccc2ccccc2c1  inhibition at 24 h, 64 µM           0
10  O=c1c2cc([N+](=O)[O-])ccc2n(Cc2ccccc2)n1Cc1ccccc1  inhibition at 24 h, 64 µM        9.77
11  Cn1c2ccc([N+](=O)[O-])cc2c(=O)n1Cc1ccc2ccccc2c1  inhibition at 24 h, 64 µM           0
12  CC(C)n1c2ccc([N+](=O)[O-])cc2c(=O)n1-c1ccccc1  inhibition at 24 h, 64 µM           0
13  CC1CS(=O)(=O)CCN1/N=C/c1ccc([N+](=O)[O-])o1 (stereo not drawn)  inhibition at 24 h, 64 µM           0
14  Cn1c(=O)c2cc([N+](=O)[O-])ccc2n1Cc1ccccc1  inhibition at 24 h, 64 µM        0.55
15    COc1c2cc([N+](=O)[O-])ccc2nn1Cc1ccccc1  inhibition at 24 h, 64 µM           0
16  CCCCCn1c2ccc([N+](=O)[O-])cc2c(=O)n1Cc1ccccc1  inhibition at 24 h, 64 µM        54.1
17  Cn1nc(OCc2ccc3ccccc3c2)c2cc([N+](=O)[O-])ccc21  inhibition at 24 h, 64 µM        13.3
18          CCCOc1c2cc([N+](=O)[O-])ccc2nn1C  inhibition at 24 h, 64 µM           0
19  CCCOc1c2cc([N+](=O)[O-])ccc2nn1Cc1ccc2ccccc2c1  inhibition at 24 h, 64 µM        22.4
20  CCCn1c2ccc([N+](=O)[O-])cc2c(=O)n1-c1ccccc1  inhibition at 24 h, 64 µM           0
21  Cn1c2ccc([N+](=O)[O-])cc2c(=O)n1-c1ccccc1  inhibition at 24 h, 64 µM           0
22       CCCn1c2ccc([N+](=O)[O-])cc2c(=O)n1C  inhibition at 24 h, 64 µM           0
23  CCCOc1c2cc([N+](=O)[O-])ccc2nn1Cc1ccccc1  inhibition at 24 h, 64 µM           0
